Value source: PubChem BioAssay (NCI)

system: KM12 colon; test: NCI tumour cell line growth inhibition, 48 h; in the data active = GI50 below about 0.43 µM; inactive = the rest
Classes used: label 1 (active), label 0 (inactive)

>>> label_value("C#Cc1cccc(NC(=O)Nc2cccc(NC(=O)CCl)c2)c1")
"label 0"
>>> label_value("COc1ccc(C(=O)CC(Cl)=C(Cl)Cl)cc1")
"label 0"
>>> label_value("C[As](C)SCC(COC(=O)c1ccccc1)OC(=O)c1ccccc1 (configuration not stated)")
"label 1"
>>> label_value("Cn1cnc2nc(Cl)nc(Cl)c21")
"label 0"
>>> label_value("CN(C)CCCn1c2c(c3ccncc3c1=O)C(=O)c1ccccc1-2")
"label 0"
>>> label_value("COC(=O)c1cc2c([nH]c3ccccc32)c(-c2nc3cc(N(S(=O)(=O)c4ccc(C)cc4)S(=O)(=O)c4ccc(C)cc4)c(OC)cc3cc2CO)n1")
"label 0"
>>> label_value("Cn1cc(C2=C(c3cn(CCCSC(=N)N)c4ccccc34)C(=O)NC2=O)c2ccccc21")
"label 0"
>>> label_value("Cc1cccc(NC(=O)c2sc3nc4c(cc3c2N)CCC4)c1C")
"label 1"
>>> label_value("Cc1ccc(S(=O)(=O)NC(CCCCN)C(=O)CCl)cc1 (configuration not stated)")
"label 0"
>>> label_value("Nc1cc(N)c2nc(-c3ccccc3)c(Sc3ccc(F)cc3)nc2c1")
"label 0"
>>> label_value("COc1ccc(C2CC(c3cccc(Nc4ccnc5cc(Cl)ccc45)c3)=NN2c2ccc(Cl)cc2)cc1 (configuration not stated)")
"label 0"
>>> label_value("O=C1/C(=C/c2ccc([N+](=O)[O-])s2)Oc2ccc(Cl)cc21")
"label 1"
>>> label_value("Cc1nn(-c2ccccc2)c2ncc3c(c12)C(=O)N(Cc1ccccc1)C3=O")
"label 0"
>>> label_value("COc1c(C)cnc(Cn2cnc3c(Cl)nc(N)nc32)c1C")
"label 1"
>>> label_value("Oc1c(Br)cc(Br)c2cccnc12")
"label 0"
>>> label_value("CN(C)CCCn1c2c(c3ccc([N+](=O)[O-])cc3c1=O)C(=O)c1ccccc1-2")
"label 0"
>>> label_value("Cc1cc(N2CCOCC2)nc(N(CCNc2ccnc3cc(Cl)ccc23)Cc2cccs2)n1")
"label 0"
>>> label_value("N#Cc1ccccc1C#C/C=C\\C#Cc1cnccn1")
"label 0"
>>> label_value("COc1cc(C2C3=C(COC3=O)N(CCO)c3cc4c(cc32)CCC4)cc(OC)c1OC (configuration not stated)")
"label 1"
>>> label_value("Oc1ccc(-c2nc(-c3ccc4oc5ccc(-c6[nH]c(-c7ccc(O)cc7)nc6-c6ccccc6)cc5c4c3)c(-c3ccccc3)[nH]2)cc1")
"label 0"
>>> label_value("COc1ccc(/C(C)=C(\\c2ccc(Cl)cc2)c2ccc(OCCN3CCCCC3)cc2)cc1F")
"label 0"
>>> label_value("CCOC(=O)c1ccccc1NC(c1ccccc1)c1ccc2cccnc2c1O (configuration not stated)")
"label 0"
